FYI, the data here is from PubChem BioAssay AID1918945.

test system: 883617-216-R-J1-PDC complex spheroid viability; test: Anticancer human tumor 883617-216-R-J1-PDC patient-derived bladder carcinoma cell line growth inhibition; settings: second compound 3.16 µM; first compound 0.1 µM; stronger effect = lower value
# if measured viability, T/C < 90%: label 1  # else: label 0

{"columns": ["compound", "assignedLabel"],
 "data": [
  ["CC1(C)CCC(CN2CCN(c3ccc(C(=O)NS(=O)(=O)c4ccc(NCC5CCOCC5)c([N+](=O)[O-])c4)c(Oc4cnc5[nH]ccc5c4)c3)CC2)=C(c2ccc(Cl)cc2)C1 + NC1CC1c1ccc(-c2cccc(O)c2)cc1", "label 0"],
  ["O=C(c1cc(Cc2n[nH]c(=O)c3ccccc23)ccc1F)N1CCN(C(=O)C2CC2)CC1 + NC1CCC(NC2CC2c2ccccc2)CC1", "label 0"],
  ["Nc1ncn(C2CC(O)C(CO)O2)c(=O)n1 (configuration not stated) + NC1CC1c1ccc(-c2cccc(O)c2)cc1", "label 1"],
  ["Nc1ncn(C2CC(O)C(CO)O2)c(=O)n1 (configuration not stated) + NC1CCC(NC2CC2c2ccccc2)CC1", "label 1"],
  ["CC1COCCN1c1cc(C2(S(C)(=N)=O)CC2)nc(-c2ccnc3[nH]ccc23)n1 (configuration not stated) + NC1CC1c1ccc(-c2cccc(O)c2)cc1", "label 1"],
  ["CC1COCCN1c1cc(C2(S(C)(=N)=O)CC2)nc(-c2ccnc3[nH]ccc23)n1 (configuration not stated) + NC1CCC(NC2CC2c2ccccc2)CC1", "label 0"],
  ["O=C(c1cc(Cc2n[nH]c(=O)c3ccccc23)ccc1F)N1CCN(C(=O)C2CC2)CC1 + NC1CC1c1ccc(-c2cccc(O)c2)cc1", "label 1"]
]}

###

Reported values of viability, T/C for individual entries
system: 883617-216-R-J1-PDC complex spheroid viability; experiment: Anticancer human tumor 883617-216-R-J1-PDC cell line growth inhibition; settings: second compound 3.16 µM; first compound 10 µM; stronger effect = lower value;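 note: exposure lasted seven days after three days of spheroid growth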;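 for viability, T/C: 100% = DMSO vehicle control luminescence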

{"columns": ["compound", "viability, T/C / %"],
 "data": [
  ["COc1ccc([C@@H](O)c2cc(-c3ncnc4cc(N5CCOCC5)ccc34)c(F)cc2Cl)nn1 + NC1CC1c1ccc(-c2cccc(O)c2)cc1", 14.3],
  ["CC1(C)CCC(CN2CCN(c3ccc(C(=O)NS(=O)(=O)c4ccc(NCC5CCOCC5)c([N+](=O)[O-])c4)c(Oc4cnc5[nH]ccc5c4)c3)CC2)=C(c2ccc(Cl)cc2)C1 + NC1CCC(NC2CC2c2ccccc2)CC1", 27],
  ["CC1(C)CCC(CN2CCN(c3ccc(C(=O)NS(=O)(=O)c4ccc(NCC5CCOCC5)c([N+](=O)[O-])c4)c(Oc4cnc5[nH]ccc5c4)c3)CC2)=C(c2ccc(Cl)cc2)C1 + NC1CC1c1ccc(-c2cccc(O)c2)cc1", 14],
  ["CC(C)c1c(-c2ccccc2)nc2c(C#N)c[nH]n2c1=O + NC1CC1c1ccc(-c2cccc(O)c2)cc1", 94.4],
  ["CC(C)c1c(-c2ccccc2)nc2c(C#N)c[nH]n2c1=O + NC1CCC(NC2CC2c2ccccc2)CC1", 89.9],
  ["CC1COCCN1c1cc(C2(S(C)(=N)=O)CC2)nc(-c2ccnc3[nH]ccc23)n1 (stereo not given) + NC1CC1c1ccc(-c2cccc(O)c2)cc1", 24.6],
  ["CC1COCCN1c1cc(C2(S(C)(=N)=O)CC2)nc(-c2ccnc3[nH]ccc23)n1 (stereo not given) + NC1CCC(NC2CC2c2ccccc2)CC1", 31.5],
  ["COc1ccc([C@@H](O)c2cc(-c3ncnc4cc(N5CCOCC5)ccc34)c(F)cc2Cl)nn1 + NC1CCC(NC2CC2c2ccccc2)CC1", 21.9],
  ["O=C(c1cc(Cc2n[nH]c(=O)c3ccccc23)ccc1F)N1CCN(C(=O)C2CC2)CC1 + NC1CC1c1ccc(-c2cccc(O)c2)cc1", 25.5],
  ["O=C(c1cc(Cc2n[nH]c(=O)c3ccccc23)ccc1F)N1CCN(C(=O)C2CC2)CC1 + NC1CCC(NC2CC2c2ccccc2)CC1", 42.5]
]}

###

system: 883617-216-R-J1-PDC complex spheroid viability; assay: Anticancer human tumor 883617-216-R-J1-PDC cell line growth inhibition; settings: curve of first compound; second compound 3.16 µM;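 note: exposure lasted seven days after three days of spheroid growth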
pIC50: −log10 of the molar value.
Label rule, in plain words: pIC50 of 7 and up is MET, under 7 is NOT MET.

{"columns": ["molecule", "assignedLabel"],
 "data": [
  ["Nc1ccn(C2OC(CO)C(O)C2(F)F)c(=O)n1 (centres undefined) + NC1CCC(NC2CC2c2ccccc2)CC1", "MET"],
  ["Nc1ccccc1NC(=O)c1ccc(CNC(=O)OCc2cccnc2)cc1 + NC1CCC(NC2CC2c2ccccc2)CC1", "NOT MET"],
  ["CC(C)c1c(-c2ccccc2)nc2c(C#N)c[nH]n2c1=O + NC1CCC(NC2CC2c2ccccc2)CC1", "NOT MET"],
  ["CCN(c1cc(-c2ccc(CN3CCOCC3)cc2)cc(C(=O)NCc2c(C)cc(C)[nH]c2=O)c1C)C1CCOCC1 + NC1CC1c1ccc(-c2cccc(O)c2)cc1", "NOT MET"],
  ["COc1cc(C2c3cc4c(cc3C(OC3OC5COC(C)OC5C(O)C3O)C3COC(=O)C23)OCO4)cc(OC)c1O (centres undefined) + NC1CCC(NC2CC2c2ccccc2)CC1", "NOT MET"],
  ["CC(C)c1c(-c2ccccc2)nc2c(C#N)c[nH]n2c1=O + NC1CC1c1ccc(-c2cccc(O)c2)cc1", "NOT MET"],
  ["NS(=O)(=O)OCC1CC(n2ccc3c(NC4CCc5ccccc54)ncnc32)CC1O (centres undefined) + NC1CCC(NC2CC2c2ccccc2)CC1", "NOT MET"],
  ["Nc1ncn(C2CC(O)C(CO)O2)c(=O)n1 (centres undefined) + NC1CCC(NC2CC2c2ccccc2)CC1", "NOT MET"],
  ["O=C(c1cc(Cc2n[nH]c(=O)c3ccccc23)ccc1F)N1CCN(C(=O)C2CC2)CC1 + NC1CCC(NC2CC2c2ccccc2)CC1", "NOT MET"],
  ["COc1ccc([C@@H](O)c2cc(-c3ncnc4cc(N5CCOCC5)ccc34)c(F)cc2Cl)nn1 + NC1CCC(NC2CC2c2ccccc2)CC1", "NOT MET"],
  ["CC1COCCN1c1cc(-c2ccnn2C)c2ccnc(-c3ccn[nH]3)c2n1 (centres undefined) + NC1CC1c1ccc(-c2cccc(O)c2)cc1", "MET"],
  ["Nc1ncn(C2CC(O)C(CO)S2)c(=O)n1 (centres undefined) + NC1CCC(NC2CC2c2ccccc2)CC1", "NOT MET"],
  ["O=C(C=Cn1cnc(-c2cc(C(F)(F)F)cc(C(F)(F)F)c2)n1)NNc1cnccn1 + NC1CCC(NC2CC2c2ccccc2)CC1", "MET"],
  ["O=C(c1cc(Cc2n[nH]c(=O)c3ccccc23)ccc1F)N1CCN(C(=O)C2CC2)CC1 + NC1CC1c1ccc(-c2cccc(O)c2)cc1", "NOT MET"],
  ["O=C(C=Cc1cccc(S(=O)(=O)Nc2ccccc2)c1)NO + NC1CC1c1ccc(-c2cccc(O)c2)cc1", "MET"],
  ["NS(=O)(=O)OCC1CC(n2ccc3c(NC4CCc5ccccc54)ncnc32)CC1O (centres undefined) + NC1CC1c1ccc(-c2cccc(O)c2)cc1", "NOT MET"],
  ["CC[C@@]1(O)C(=O)OCc2c1cc1n(c2=O)Cc2cc3c(CN(C)C)c(O)ccc3nc2-1 + NC1CCC(NC2CC2c2ccccc2)CC1", "MET"],
  ["CC(C)CC(NC(=O)C(Cc1ccccc1)NC(=O)c1cnccn1)B(O)O (centres undefined) + NC1CC1c1ccc(-c2cccc(O)c2)cc1", "MET"],
  ["O=C(C=Cn1cnc(-c2cc(C(F)(F)F)cc(C(F)(F)F)c2)n1)NNc1cnccn1 + NC1CC1c1ccc(-c2cccc(O)c2)cc1", "MET"],
  ["CC1COCCN1c1cc(C2(S(C)(=N)=O)CC2)nc(-c2ccnc3[nH]ccc23)n1 (centres undefined) + NC1CCC(NC2CC2c2ccccc2)CC1", "NOT MET"],
  ["Cn1ncnc1C1c2n[nH]c(=O)c3cc(F)cc(c23)NC1c1ccc(F)cc1 (centres undefined) + NC1CC1c1ccc(-c2cccc(O)c2)cc1", "MET"],
  ["COc1ccc([C@@H](O)c2cc(-c3ncnc4cc(N5CCOCC5)ccc34)c(F)cc2Cl)nn1 + NC1CC1c1ccc(-c2cccc(O)c2)cc1", "NOT MET"],
  ["Nc1ccn(C2OC(CO)C(O)C2(F)F)c(=O)n1 (centres undefined) + NC1CC1c1ccc(-c2cccc(O)c2)cc1", "MET"],
  ["CC(C)CC(NC(=O)CNC(=O)c1cc(Cl)ccc1Cl)B1OC(=O)CC(CC(=O)O)(C(=O)O)O1 (centres undefined) + NC1CCC(NC2CC2c2ccccc2)CC1", "MET"],
  ["Cn1ncnc1C1c2n[nH]c(=O)c3cc(F)cc(c23)NC1c1ccc(F)cc1 (centres undefined) + NC1CCC(NC2CC2c2ccccc2)CC1", "NOT MET"],
  ["CCc1c2c(nc3ccc(O)cc13)-c1cc3c(c(=O)n1C2)COC(=O)[C@]3(O)CC + NC1CCC(NC2CC2c2ccccc2)CC1", "MET"]
]}
